- Tested on: RXRa DBDmut IVT, anti-RXR (DBD mutation: RXRa K156A/R161A, NR concentration 90 nM)
- Protocol Summary: PBM binding z-score (relative to random genomic background probes); higher = stronger binding; sequences stand for … in GC…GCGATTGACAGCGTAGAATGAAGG
Readout Type: PBM binding z-score
// response body must contain only the number

Take a look at these entries with their results.
>  <Seq>
ACTAGCAGGCCAAGATTGGGTCACTCAAACAAAG

>  <PBM binding z-score>
-0.534

$$$$
>  <Seq>
GATTCAGGGTCAAGGCCAGAGTACGCGTATTGAT

>  <PBM binding z-score>
3.03

$$$$
>  <Seq>
TAGCCTAGGTCATTGCGCCAGTATAGTACGCATC

>  <PBM binding z-score>
1.74

$$$$

Specify PBM binding z-score for AGAACGAGGGCACGCTGAGATGATAGCAGAGTAG , system RXRa DBDmut IVT, anti-RXR (DBD mutation: RXRa K156A/R161A, NR concentration 90 nM).
1.8

Specify PBM binding z-score for ATATGTAGGTTAGCTGGGCTCATTCAGACTAGGC , system RXRa DBDmut IVT, anti-RXR (DBD mutation: RXRa K156A/R161A, NR concentration 90 nM).
-0.108

Specify PBM binding z-score for TCATATAGGTAATACAGCTGAAAGTCGGCATCTA , system RXRa DBDmut IVT, anti-RXR (DBD mutation: RXRa K156A/R161A, NR concentration 90 nM).
1.69
